A collection of compounds and their measured activity at 100 µM
# Tested on: M. mycetomatis genome strain MM55
# ASSAY PROCEDURE: CLSI M38-A2 based in vitro susceptibility screening (XTT or resazurin), growth at fixed concentration
# Assay type: cell-based, Madurella mycetomatis
# ASSAY CONDITIONS: Madurella mycetomatis, 100 uM, replicate 2; read-out: Percentage survival at 100um, 100 uM A
Provide a numeric answer, followed by its unit.

Check out these entries, answers already filled in.
COMPOUND	activity at 100 µM
N#CCN1C(=O)COc2cc(F)c(N3C(=O)c4ccccc4C3=O)cc21	94.2%
Cn1cc(NC(=O)c2cc(NC(=O)c3ccc(/C=C/c4cnc5ccccc5c4)cc3)cn2C)cc1C(=O)NCCN1CCOCC1	53.1%

Task item: For the compound Nc1nc(NC2Cc3ccc(F)cc3C2)nc(N2CCCCC2)n1 (stereo not shown) , give its reported activity at 100 µM.
Reply: 0.453%

Task item: For the compound C[N+]1(C)CCCC(OC(=O)C(O)(c2ccccc2)c2ccccc2)C1 (stereo not shown) , give its reported activity at 100 µM.
Reply: 72.6%

Data provenance: paper PMC8815882
